Where do these numbers come from? They come from patent US7056940B2.

# System: Sweetpotato Whitefly (Bemisia tabacia)
# Method Notes: Insecticidal test for sweetpotato whitefly, spray on cotton plants
# Format: in vivo
# Run Conditions: 200 ppm spray, 13 days, large nymphs
Test Readout: WF: activity at 200 ppm against whitefly (% control rating)

INSERT INTO measurements (compound, result) VALUES
  ('Cn1nc(-c2c(F)cccc2Cl)nc1-c1csc(-c2ccc(Cl)cc2F)c1', 'F (less than 50)'),
  ('Cc1sc(-c2cc(C(F)(F)F)ccc2F)cc1-c1nc(-c2c(F)cccc2Cl)nn1C', 'G'),
  ('Cc1cc(-c2ccc(F)cc2)sc1-c1nc(-c2c(F)cccc2Cl)nn1C', 'G'),
  ('CC(C)=COc1ccc(-c2scc(-c3nc(-c4c(F)cccc4Cl)nn3C)c2C)cc1', 'A (90–100)'),
  ('Cc1c(-c2nc(-c3c(F)cccc3Cl)nn2C)csc1-c1ccc(OC(F)(F)CF)cc1', 'A (90–100)'),
  ('Cc1cc(-c2cccc(OC(F)(F)F)c2)sc1-c1nc(-c2c(F)cccc2Cl)nn1C', 'F (less than 50)'),
  ('COCCOc1cccc(-c2cc(C)c(-c3nc(-c4c(F)cccc4Cl)nn3C)s2)c1', 'G'),
  ('Cc1cc(-c2ccc(OC(F)(F)C(F)Cl)cc2)sc1-c1nc(-c2c(F)cccc2Cl)nn1C (stereo not drawn)', 'F (less than 50)');

Please turn your attention to the following entry.
Challenge: What does the data say about its WF: activity at 200 ppm against whitefly (% control rating)? Entry: Cc1c(-c2nc(-c3c(F)cccc3Cl)nn2C)sc(Br)c1-c1ccc(OC(F)(F)C(F)Br)cc1 (stereo not drawn)
Response given: F (less than 50)
